# maps each entry to its MHET released
- procedure summary: MHET released, HPLC; higher = more MHET released; extreme values may be limits of the assay
- condition context: PET substrate: aFilm; 60 °C; pH 4.5; 24 h
// note: answer is a bare numeric in mM

Fill in: MHET released of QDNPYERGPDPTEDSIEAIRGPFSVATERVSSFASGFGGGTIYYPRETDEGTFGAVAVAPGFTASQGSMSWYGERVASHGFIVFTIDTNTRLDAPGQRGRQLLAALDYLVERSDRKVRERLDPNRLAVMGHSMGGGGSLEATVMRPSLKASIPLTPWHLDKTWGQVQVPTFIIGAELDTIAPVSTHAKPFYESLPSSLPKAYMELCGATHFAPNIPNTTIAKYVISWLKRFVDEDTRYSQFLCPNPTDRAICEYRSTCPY [Cut190*SS] is ___ 0

Fill in: MHET released of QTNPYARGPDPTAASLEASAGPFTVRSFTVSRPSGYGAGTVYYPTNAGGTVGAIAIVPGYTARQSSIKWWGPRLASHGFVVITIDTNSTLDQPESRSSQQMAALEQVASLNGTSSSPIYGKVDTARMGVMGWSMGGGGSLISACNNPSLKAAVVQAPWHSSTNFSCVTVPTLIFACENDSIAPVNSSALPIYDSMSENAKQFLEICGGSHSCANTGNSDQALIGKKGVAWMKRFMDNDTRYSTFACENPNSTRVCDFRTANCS [Z1-PETase] is ___ 0

Fill in: MHET released of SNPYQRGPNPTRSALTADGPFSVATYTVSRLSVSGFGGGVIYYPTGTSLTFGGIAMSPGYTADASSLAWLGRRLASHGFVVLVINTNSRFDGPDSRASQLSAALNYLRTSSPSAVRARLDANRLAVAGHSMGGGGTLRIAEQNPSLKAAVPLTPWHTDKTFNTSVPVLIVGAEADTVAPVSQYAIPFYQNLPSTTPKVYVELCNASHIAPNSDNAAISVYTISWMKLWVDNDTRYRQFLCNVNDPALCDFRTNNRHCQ [LCC-A2] is ___ 0.107

Fill in: MHET released of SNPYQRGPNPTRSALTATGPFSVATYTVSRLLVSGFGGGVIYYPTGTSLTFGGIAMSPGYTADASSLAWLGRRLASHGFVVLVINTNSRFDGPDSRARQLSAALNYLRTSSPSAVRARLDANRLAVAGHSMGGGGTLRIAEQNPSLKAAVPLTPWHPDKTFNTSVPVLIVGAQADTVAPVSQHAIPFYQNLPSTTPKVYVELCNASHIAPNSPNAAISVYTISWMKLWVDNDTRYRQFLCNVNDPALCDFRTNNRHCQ [LCC-ICCG I6M] is ___ 0.067

Fill in: MHET released of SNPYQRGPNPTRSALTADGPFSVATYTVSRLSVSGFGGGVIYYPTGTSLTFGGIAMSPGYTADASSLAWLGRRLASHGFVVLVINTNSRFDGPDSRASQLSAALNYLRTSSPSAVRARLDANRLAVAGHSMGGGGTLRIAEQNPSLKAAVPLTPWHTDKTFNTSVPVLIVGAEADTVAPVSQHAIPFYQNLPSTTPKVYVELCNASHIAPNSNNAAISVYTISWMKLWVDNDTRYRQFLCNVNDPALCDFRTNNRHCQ [LCC-ICCG] is ___ 0.00708

Fill in: MHET released of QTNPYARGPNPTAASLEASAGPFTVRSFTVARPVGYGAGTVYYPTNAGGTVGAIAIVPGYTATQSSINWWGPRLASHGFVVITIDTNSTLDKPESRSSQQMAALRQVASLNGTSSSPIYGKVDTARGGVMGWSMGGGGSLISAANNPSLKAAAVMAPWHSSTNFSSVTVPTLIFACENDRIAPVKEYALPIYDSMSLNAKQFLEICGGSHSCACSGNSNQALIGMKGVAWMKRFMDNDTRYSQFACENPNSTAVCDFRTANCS [HotPETase] is ___ 0

Fill in: MHET released of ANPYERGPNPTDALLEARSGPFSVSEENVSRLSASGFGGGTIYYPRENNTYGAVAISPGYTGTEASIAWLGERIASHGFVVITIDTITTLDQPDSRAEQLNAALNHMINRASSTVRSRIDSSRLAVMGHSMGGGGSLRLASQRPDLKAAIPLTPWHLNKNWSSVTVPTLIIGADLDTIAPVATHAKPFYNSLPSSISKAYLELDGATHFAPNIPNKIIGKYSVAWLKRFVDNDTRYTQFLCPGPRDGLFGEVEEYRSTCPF [TfCut2] is ___ 0

Fill in: MHET released of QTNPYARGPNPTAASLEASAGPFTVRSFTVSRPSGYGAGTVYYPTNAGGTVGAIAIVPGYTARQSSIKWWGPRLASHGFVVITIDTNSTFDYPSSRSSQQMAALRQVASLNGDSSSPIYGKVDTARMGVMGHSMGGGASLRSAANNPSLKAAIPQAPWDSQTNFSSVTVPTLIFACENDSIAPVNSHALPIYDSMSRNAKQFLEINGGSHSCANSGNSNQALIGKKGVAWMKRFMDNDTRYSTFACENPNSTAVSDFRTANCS [DuraPETase] is ___ 0

Fill in: MHET released of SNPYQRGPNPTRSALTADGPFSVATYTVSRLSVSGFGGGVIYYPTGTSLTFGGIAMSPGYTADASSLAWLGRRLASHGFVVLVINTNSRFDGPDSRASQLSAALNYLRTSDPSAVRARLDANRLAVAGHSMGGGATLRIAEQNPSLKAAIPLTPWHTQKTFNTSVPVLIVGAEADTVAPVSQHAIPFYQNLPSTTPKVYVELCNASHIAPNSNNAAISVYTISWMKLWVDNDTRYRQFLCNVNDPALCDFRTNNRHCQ [LCC-ICCG DAQI] is ___ 0.0359

Fill in: MHET released of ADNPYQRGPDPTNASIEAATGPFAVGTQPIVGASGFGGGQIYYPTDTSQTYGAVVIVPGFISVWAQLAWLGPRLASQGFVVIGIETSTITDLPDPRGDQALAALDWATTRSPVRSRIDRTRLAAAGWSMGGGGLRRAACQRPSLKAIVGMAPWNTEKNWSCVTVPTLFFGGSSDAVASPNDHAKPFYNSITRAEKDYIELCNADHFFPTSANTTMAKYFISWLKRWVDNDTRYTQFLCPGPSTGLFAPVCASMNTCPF [CaPETaseM9] is ___ 0.00378

Fill in: MHET released of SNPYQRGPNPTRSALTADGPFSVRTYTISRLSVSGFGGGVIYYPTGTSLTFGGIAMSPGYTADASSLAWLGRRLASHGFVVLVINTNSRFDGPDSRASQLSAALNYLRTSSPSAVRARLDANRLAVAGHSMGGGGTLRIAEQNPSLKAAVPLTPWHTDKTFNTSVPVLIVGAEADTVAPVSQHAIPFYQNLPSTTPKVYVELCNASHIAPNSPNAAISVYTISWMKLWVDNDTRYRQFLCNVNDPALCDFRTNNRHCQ [LCC-ICCG RIP] is ___ 0.0627
